biological target: T1, human A-beta(1-40) peptide, monomeric (BAM) (human, biotin at the C-terminus in capture ELISA, SPR and TR-FRET; not biotinylated where coated directly (Example 7)); assay: TR-FRET competition, labelled ABII60A10; extrapolated curve
T1 construct: synthetic peptide (Anaspec), TFA/HFIP treated to give monomer; also called monomeric A-beta
Quick list: IC50 per entry.
# output: numeric value plus its unit

Completed entries (count: 3):
{"Binder": "ABII42F5 (VHH) VHH: EVQLVESGGGLVQAGDSLRLSCTASGRTFTDYNIGWFCQAPGKEREFVAAISGSGGSTYYADSAKGRFTISRDNAKNTVYLQMNSLKPEDTAVYACAAAQRRLAVNVDTSYNVWGQGTQVTVSS", "Measurement": "228 nM"}
{"Binder": "ABII35G2 (VHH) VHH: EVQLVESGGGLVQAGGSLRLSCVASGRTFSNYGMGWFRQAPGKDREFVAAISRSGGTTYYEDDVKGRFTISRDNAKNSVYLQMNSLKPEDTAVYYCAARPSYVAVNIAASYNNWGQGTQVTVSS", "Measurement": "645 nM"}
{"Binder": "ABII61F6 (VHH) VHH: EVQLVESGGGLVQTGGSLRLSCAASGSTVNINAMGWYRQAPGKQRELVAIINKRGVTNYADSTEGRFTISRDNSKRTLYLQMNSLKPEDTAVYYCNAVVGRYGRTYGYWGQGTQVTVSS", "Measurement": "967 nM"}

Task: Recorded IC50 for reference VHH 2D2 (VHH, from WO2006/40153, made and purified like the other VHHs) VHH: AVQLVDSGGGLVQAGGSLRLSCAVSGGTFSSIGMGWFRQAPGKEREFVGAISRSGDSTYYADSVKGRFTISRDGAKNTVYLQMNSLKDEDTAVYYCAGRPAGTAINIRRSYNYWGQGTQVTVSS , please?
Output: 404 nM
